All figures here come from paper PMC11859184.

Measured tissue uptake at 72 h, listed per entry for reference.
- ASSAY SUMMARY: Ex vivo biodistribution of 177Lu-labeled ligands in PC-3 tumor-bearing mice
- ASSAY SETUP: mouse, kidneys, intravenous, 72 h pi, n = 5; read-out: Kidneys uptake

## Task Find the measured tissue uptake at 72 h of CC(C)C[C@H](NC(=O)[C@H](Cc1cnc[nH]1)N(C)C(=O)CNC(=O)[C@@H](NC(=O)[C@H](C)NC(=O)[C@H](Cc1c[nH]c2ccccc12)NC(=O)[C@H](CCC(N)=O)NC(=O)[C@@H](Cc1ccccc1)NC(=O)CN1CCC(NC(=O)CN2CCN(CC(=O)O)CCN(CC(=O)O)CCN(CC(=O)O)CC2)CC1)C(C)(C)C)C(=O)N1CC(F)(F)C[C@H]1C(N)=O [[^177Lu]Lu-LW02060, metal not drawn] and report it.
## Result 0.33 %ID/g

## Task Find the measured tissue uptake at 72 h of CC(C)C[C@@H](CN1CC(F)(F)C[C@H]1C(N)=O)NC(=O)[C@H](Cc1c[nH]cn1)NC(=O)CN(C)C(=O)[C@@H](NC(=O)[C@H](C)NC(=O)[C@H](Cc1c[nH]c2ccccc12)NC(=O)[C@H](CCC(N)=O)NC(=O)[C@@H](Cc1ccccc1)NC(=O)CN1CCC(NC(=O)CN2CCN(CC(=O)O)CCN(CC(=O)O)CCN(CC(=O)O)CC2)CC1)C(C)C [[^177Lu]Lu-LW02080, metal not drawn] and report it.
## Result 0.26 %ID/g
